# Test system: OCI-LY10
# Test Summary: CTG Cell Viability Assay - OCI-LY10
# Assay type: cell-based, human
# Condition: Homo sapiens, OCI-Ly10, 96 h, OCI-LY10, 4 days; read-out: CTG Cell Viability Assay - OCI-LY10: Average external-IC50
pIC50: −log10 of the molar value.
Property Measured: pIC50

>  <Molecule>
Cn1c(=O)n(C2CCC(=O)NC2=O)c2ccc(CN3CCN(C[C@H]4CC[C@H](n5cc(NC(=O)c6coc(-c7ccnc(NCC8CC8)c7)n6)c(C(F)F)n5)CC4)CC3)cc21 (stereo partly shown)

>  <Tested On>
OCI-LY10

>  <Result Value>
< 6.00

$$$$
>  <Molecule>
O=C1CCC(N2C(=O)c3cccc(NCC4CC5(CCN(C[C@H]6CC[C@H](n7cc(NC(=O)c8cnn9ccc(N%10C[C@H]%11C[C@@H]%10CO%11)nc89)c(C(F)F)n7)CC6)CC5)C4)c3C2=O)C(=O)N1 (stereo partly shown)

>  <Tested On>
OCI-LY10

>  <Result Value>
> 7.30

$$$$
>  <Molecule>
CC[C@@H]1[C@H](F)C(=O)N[C@@H]1COc1ncc(C#C[C@H]2CC[C@H](CN(C)CCCOCCNc3cccc4c3C(=O)N(C3CCC(=O)NC3=O)C4=O)CC2)c2cc(C(N)=O)c(OC)cc12 (stereo partly shown)

>  <Tested On>
OCI-LY10

>  <Result Value>
> 7.30

$$$$
>  <Molecule>
CC[C@@H]1[C@H](F)C(=O)N[C@@H]1COc1ncc(C#C[C@H]2CC[C@H](CN3CCC(OCCNc4cccc5c4C(=O)N(C4CCC(=O)NC4=O)C5=O)CC3)CC2)c2cc(C(N)=O)c(OC)cc12 (stereo partly shown)

>  <Tested On>
OCI-LY10

>  <Result Value>
> 7.30

$$$$
>  <Molecule>
CC[C@@H]1[C@H](F)C(=O)N[C@@H]1COc1ncc(C#C[C@H]2CC[C@H](CN)CC2)c2cc(C(N)=O)c(OC)cc12

>  <Tested On>
OCI-LY10

>  <Result Value>
< 6.00

$$$$
>  <Molecule>
O=C1CCC(N2C[C@@H](c3ccc(C#CCCOC4CCN(C[C@H]5CC[C@H](n6cc(NC(=O)c7cnn8ccc(N9CCC(O)CC9)nc78)c(C(F)F)n6)CC5)CC4)cc3)OC2=O)C(=O)N1 (stereo partly shown)

>  <Tested On>
OCI-LY10

>  <Result Value>
< 6.00

$$$$
>  <Molecule>
C[C@@H]1CN(c2ccn3ncc(C(=O)Nc4cn([C@H]5CC[C@H](CN6CCC(OCCCc7cccc8c7n(C)c(=O)n8C7CCC(=O)NC7=O)CC6)CC5)nc4C(F)F)c3n2)C[C@H](C)O1 (stereo partly shown)

>  <Tested On>
OCI-LY10

>  <Result Value>
< 6.00

$$$$
>  <Molecule>
O=C1CCC(N2C(=O)c3cccc(NCCCOC4CCN(Cc5ccc(-n6cc(NC(=O)c7cnn8ccc(N9CCOCC9)nc78)c(C(F)F)n6)cc5)CC4)c3C2=O)C(=O)N1 (stereo not shown)

>  <Tested On>
OCI-LY10

>  <Result Value>
7.00 to 7.30

$$$$
>  <Molecule>
O=C1CCC(N2C(=O)c3cccc(NCC4CCN(C[C@H]5CC[C@H](n6cc(NC(=O)c7cnn8ccc(N9C[C@H]%10CC9CO%10)nc78)c(C(F)F)n6)CC5)CC4)c3C2=O)C(=O)N1 (stereo partly shown)

>  <Tested On>
OCI-LY10

>  <Result Value>
> 7.30

$$$$
>  <Molecule>
Cc1ccc(-n2nc(C3CCN(C(=O)CCCCOCCCc4cccc5c4n(C)c(=O)n5C4CCC(=O)NC4=O)CC3)cc2NC(=O)c2cnn3cccnc23)nc1 (stereo not shown)

>  <Tested On>
OCI-LY10

>  <Result Value>
< 6.00

$$$$
